test system: HL-60(TB) leukemia; experiment: NCI-60 one-dose screen, 48 h; conditions: 10 µM unless noted
The panel holds about 83,000 compounds, 20% with a hit somewhere; the sample as a whole holds those more often. Active and inactive are the calls of the source. How the source made its calls: active means growth percent below 10; inactive means the rest.
Outcomes you can answer with include only these: active, inactive

The following molecules have reported results that may help.
Qu. Entry Oc1ccc(Cl)cc1CNc1nc2ccccc2[nH]1 : call = ?
Ans. active

Qu. Assay outcome for CC(C)(C)OC(=O)CN1CCc2c(sc3ncnc(N/N=C/c4cccc5ccccc45)c23)C1 : what was it?
Ans. active

Could you now consider this next molecule?
Qu. What did the test return for O=C1c2cccc3cccc(c23)C(=O)N1C/C=C/c1ccc2c3c(cccc13)C(=O)N(CCO)C2=O ?
Ans. inactive

----------
test system: HL-60(TB) leukemia; assay: NCI-60 one-dose screen, 48 h (100 = growth as untreated, 0 = no growth, -100 = all killed); settings: 10 µM unless noted
Compounds without any hit were thinned out: in the full panel of roughly 83,000, 20% have a hit.
Lab note - cut at 20% for growth: condition met if strictly below, condition not met if not.

Qu. Decide: growth of N#Cc1c(Nc2ccccc2)nc2n(c1=O)-c1ccccc1Sc1ccccc1-2 strictly below 20%?
Ans. condition not met

Qu. State whether 20% exceeds growth recorded for COc1ccc2[nH]cc(C3(c4c[nH]c5ccc(OC)cc45)C(=O)Nc4ccc(F)cc43)c2c1 .
Ans. condition met

Qu. Does this compound meet the criterion growth < 20%? C[C@@H](Oc1cc(-c2cnn(C3CCNCC3)c2)cnc1N)c1c(Cl)ccc(F)c1Cl
Ans. condition met

Qu. Lab note: confirm whether the reported growth for this compound is below 20%, equality not counting. compound: Cc1ncc(C(=O)Nc2ccc(CN3CCN(C)CC3)c(C(F)(F)F)c2)cc1C#Cc1cnc(N)c2ccncc12
Ans. condition met

Qu. Please state whether growth is below 20% for CCNCCNc1c(C)c(-c2ccc(C(F)(F)F)cc2)c(C#N)c2nc3ccccc3n12
Ans. condition not met

Qu. hey, is growth for COc1cnc2c(c1)C(=O)c1c-2n(CCCCl)c(=O)c2ccncc12 lower than 20% or not?
Ans. condition met

Moving on to another compound below.
Qu. Consider the compound CN(C)C=Nc1cc(Cl)ccc1Cl . Is its growth strictly less than 20%?
Ans. condition not met

----------
test system: HL-60(TB) leukemia; test: NCI-60 one-dose screen, 48 h; details: 10 µM unless noted
The panel holds about 83,000 compounds, 20% with a hit somewhere; the sample as a whole holds those more often. The source made the active and inactive calls. The calls were made as follows: active = growth percent below 10; inactive = the rest.
Please answer using one outcome listed in yes (active), no (inactive)

Below, 3 compounds whose answers are already recorded.
Qu. Query: recorded result category for CC1NC(=S)NC(=O)/C1=C/c1cc(=O)oc2c1ccc1ccccc12 (centres undefined) in this test
Ans. no

Qu. Lab log entry: CC(C)=CCC[C@](C)(O)[C@H]1CC[C@]2(C)[C@@H]1CC[C@@H]1[C@@]3(C)CC[C@H](OC(=O)CCC(=O)O)C(C)(C)[C@@H]3CC[C@]12C — outcome as called in the assay?
Ans. yes

Qu. Could you please tell me the result logged for Fc1cc2[nH]ncc2c2c3c(c(-c4cn[nH]c4C(F)(F)F)nc12)C1CCC3C1 (centres undefined) in this assay?
Ans. yes

Others:
Qu. For COc1ccc(/C=C2/C(=O)Nc3cc(Cl)c(-c4csc(N)n4)cc32)cc1 , what call appears in the results of this test?
Ans. yes
